target: gastrin (Rattus norvegicus); construct: The stomach was lowered into a jacketed organ bath containing 40 ml of buffered solution; from tissue; host or cells: isolated perfused whole stomach of immature rats (ca. 21 days old); experiment: gastrin antagonist activity in an immature rat stomach assay (pentagastrin-stimulated acid secretion); conditions: cumulative pentagastrin dose-response curves after 60 min with drug, read-out: Gastrin pKB (converted)
Sequence (P30553 whole entry, the tested form may be a part): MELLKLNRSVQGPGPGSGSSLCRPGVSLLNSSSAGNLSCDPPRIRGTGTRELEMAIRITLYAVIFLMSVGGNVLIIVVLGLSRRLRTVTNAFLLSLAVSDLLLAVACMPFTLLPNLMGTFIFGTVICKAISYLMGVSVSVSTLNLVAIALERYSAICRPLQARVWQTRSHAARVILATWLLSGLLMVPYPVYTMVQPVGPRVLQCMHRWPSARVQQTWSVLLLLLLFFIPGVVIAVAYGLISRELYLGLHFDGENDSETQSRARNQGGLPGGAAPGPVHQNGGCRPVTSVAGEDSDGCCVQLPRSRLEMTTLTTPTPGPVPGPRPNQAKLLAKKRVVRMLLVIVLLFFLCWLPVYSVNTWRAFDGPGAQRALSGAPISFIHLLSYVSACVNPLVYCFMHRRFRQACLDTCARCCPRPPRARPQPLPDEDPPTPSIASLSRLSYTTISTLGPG
Readout Name: Kb (nM)

Compound: C[C@H](NC(=O)c1cc2[nH]cnc2cc1C(=O)NCC12CC3CC(CC(C3)C1)C2)C(=O)Nc1cc(C(=O)O)cc(C(=O)O)c1 [Example 71]
Kb [nM]: 100
//
Compound: O=C(O)c1cc(NC(=O)[C@H](Cc2ccc(I)cc2)NC(=O)c2cc3[nH]cnc3cc2C(=O)NCC23CC4CC(CC(C4)C2)C3)cc(C(=O)O)c1 [Example 134]
Kb [nM]: 1.58
//
Compound: O=C(O)c1cc(NC(=O)[C@H](Cc2ccccc2)NC(=O)C2Cc3[nH]cnc3CN2C(=O)NCC23CC4CC(CC(C4)C2)C3)cc(C(=O)O)c1 (mixture of isomers) [Example 126]
Kb [nM]: 100

A = O=C(O)c1cccc(NC(=O)[C@H](Cc2ccccc2)NC(=O)c2cc3[nH]cnc3cc2C(=O)NCC23CC4CC(CC(C4)C2)C3)c1 [Example 79]
B = C[C@@H](NC(=O)[C@H]1CCCN1C(=O)c1cc2ccccc2cc1C(=O)NCC12CC3CC(CC(C3)C1)C2)C(=O)O [Example 10]
Query: Just curious, which one has the larger Kb reading, A or B ? Please reply using the label of the selected record.
Response: B
(B: 316 nM, A: 100 nM)

A = C[C@H](NC(=O)c1cc2[nH]ccc2cc1C(=O)NCC12CC3CC(CC(C3)C1)C2)C(=O)Nc1cc(C(=O)O)cc(C(=O)O)c1 [Example 48]
B = O=C(O)c1cc(NC(=O)[C@H](Cc2ccc(I)cc2)NC(=O)c2cc3cc[nH]c3cc2C(=O)NCC23CC4CC(CC(C4)C2)C3)cc(C(=O)O)c1 [Example 32]
Query: Lower value for measured Kb? Options: A , B Please indicate the selected item by its label.
Response: B

P = O=C(O)c1cc(NC(=O)[C@H](Cc2ccccc2)NC(=O)c2cc3cc[nH]c3cc2C(=O)NCC23CC4CC(CC(C4)C2)C3)cc(C(=O)O)c1 [Example 24]
Q = O=C(O)c1cc(NC(=O)[C@@H]2CCCN2C(=O)c2cc3[nH]cnc3cc2C(=O)NCC23CC4CC(CC(C4)C2)C3)cc(C(=O)O)c1 [Example 77]
R = O=C(NCC12CC3CC(CC(C3)C1)C2)c1cc2nc[nH]c2cc1C(=O)N[C@@H](Cc1ccccc1)C(=O)Nc1cccc(-c2nn[nH]n2)c1 [Example 83]
S = CN(CC12CC3CC(CC(C3)C1)C2)C(=O)c1cc2ccccc2cc1C(=O)N1CCC[C@@H]1C(=O)O [Example 9]
Query: Order field: Kb | Direction: descending (largest first) // respond by listing labels in the order requested
Response: S, Q, R, P
(S: 501 nM, Q: 100 nM, R: 63.1 nM, P: 0.316 nM)

Reference source: patent US5795907A
